# system: Keap1 (Homo sapiens)
# Sequence (Q14145 315-598): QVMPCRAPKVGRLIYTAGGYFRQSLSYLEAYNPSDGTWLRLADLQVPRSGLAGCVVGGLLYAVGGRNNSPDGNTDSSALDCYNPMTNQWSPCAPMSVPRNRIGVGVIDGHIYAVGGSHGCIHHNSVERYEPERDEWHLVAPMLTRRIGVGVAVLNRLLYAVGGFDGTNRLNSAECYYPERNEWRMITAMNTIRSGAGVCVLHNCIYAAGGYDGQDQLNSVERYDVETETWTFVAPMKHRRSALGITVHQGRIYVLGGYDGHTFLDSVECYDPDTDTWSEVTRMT
observedProperty: IC50 (µM)

>>> print(df.to_string())
                                   compound  experimentalvalue
0  O=C1C=Cc2cc(Br)ccc2C1=O [bonaphton, 6-bromo-1,2-naphthoquinone]               37.9
